target: T1, HER3^I-II E43A (human, UniProt P21860 20-329); assay: SPR (BIAcore), immobilized trx-hrg
T1 construct: also called H3 I-II Mutant E43A
T1 sequence (P21860 20-329 E43A): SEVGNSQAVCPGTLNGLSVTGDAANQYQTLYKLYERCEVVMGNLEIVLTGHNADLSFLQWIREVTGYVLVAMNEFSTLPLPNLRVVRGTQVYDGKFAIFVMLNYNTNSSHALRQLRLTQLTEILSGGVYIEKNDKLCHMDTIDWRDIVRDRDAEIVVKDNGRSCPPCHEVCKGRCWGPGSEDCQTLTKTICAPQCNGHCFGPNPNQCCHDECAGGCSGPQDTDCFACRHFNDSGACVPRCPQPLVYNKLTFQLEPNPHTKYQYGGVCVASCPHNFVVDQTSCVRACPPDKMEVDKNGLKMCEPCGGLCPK
recorded.endpoint: pKd
Note: pKd values are expressed as the negative base-10 logarithm of concentration in M.

// returns reported pKd for input trx-hrg, thioredoxin-heregulin fusion with a C-terminal His and S-tag (ligand, Made as in Landgraf et al. 1998; also called S-tagged hrg; immobilized hrg; not shown: thioredoxin; C-terminal His tag and S-tag) SHLVKCAEKEKTFCVNGGECFMVKDLSNPSRYLCKCPNEFTGDRCQNYVMASFYKHLGIEF
7.20
